Assay: background-corrected fluorescence of 3'-dye-labeled ssDNA relative to brightest sequence (3'-GCGCG) (fraction); higher = brighter dye fluorescence (less quenching)
Conditions: dye: Cy3 (3' terminal)
Categorized via background-corrected fluorescence: low range (below 0.5), mid range (0.5 to below 0.6), high range (0.6 or more)

> print(dat)
                           monomer.sequence  discrete.label
1  TTTTTTGATGATCATGCTGCTTTTTTTTTTTTTTTCCGAA [AAGCC]      high range
2  TTTTTGCATGCTGCTCATGATTTTTTTTTTTTTTTTAAGC [CGAAT]       mid range
3  TTTTTGCAGCATCATGCTGATTTTTTTTTTTTTTTTTGAC [CAGTT]       low range

In the following, a different sequence is considered.
Q. Which category fits this record: TTTTTTCATGAGCATCATCATTTTTTTTTTTTTTTGCTGG [GGTCG]
A. mid range

====

Experiment: background-corrected fluorescence of 3'-dye-labeled ssDNA relative to brightest sequence (3'-GCGCG) (fraction); higher = brighter dye fluorescence (less quenching)
Conditions: dye: Cy5 (3' terminal)
Label MET when background-corrected fluorescence is at or above 0.4; otherwise label NOT MET.

Q. Given TTTTTTGATCATGATGATGATTTTTTTTTTTTTTTCGCCC [CCCGC] , state whether its background-corrected fluorescence is at least 0.4.
A. NOT MET

Q. Textbook exercise: given the entry TTTTTTGAGCATGATCATGCTTTTTTTTTTTTTTTCTCGA [AGCTC] , state whether its background-corrected fluorescence is greater than or equal to 0.4.
A. MET

Q. Can TTTTTTCATCATGATCAGCATTTTTTTTTTTTTTTGGCGT [TGCGG] be said to have background-corrected fluorescence at or above 0.4?
A. MET

Q. Exam item: decide whether the reported background-corrected fluorescence for TTTTTGCATGAGCAGCATCATTTTTTTTTTTTTTTTCTTG [GTTCT] is at least 0.4.
A. NOT MET

Q. Assess whether reported background-corrected fluorescence for TTTTTGCATGCTGATGCTCATTTTTTTTTTTTTTTTACAG [GACAT] sits at 0.4 or higher.
A. MET

Q. Could you verify whether the entry TTTTTTGATGCTCATGATCATTTTTTTTTTTTTTTCAGCG [GCGAC] shows background-corrected fluorescence of no less than 0.4?
A. MET

Q. Decide: background-corrected fluorescence of TTTTTTGCGCATCATCATCATTTTTTTTTTTTTTTATGGG [GGGTA] >= 0.4?
A. MET

Q. Exam item: decide whether the reported background-corrected fluorescence for TTTTTTGCGCAGCATGATGCTTTTTTTTTTTTTTTATTCA [ACTTA] is at least 0.4.
A. NOT MET

Q. Check this sequence for background-corrected fluorescence at or above 0.4: TTTTTTCAGCAGCAGCATCATTTTTTTTTTTTTTTGTTTG
A. NOT MET

Q. Check this sequence for background-corrected fluorescence at or above 0.4: TTTTTGCATGCGCATGCTGCTTTTTTTTTTTTTTTTATAA [AATAT]
A. MET

====

Test: background-corrected fluorescence of 3'-dye-labeled ssDNA relative to brightest sequence (3'-GCGCG) (fraction); higher = brighter dye fluorescence (less quenching)
Conditions: dye: Cy3 (3' terminal)
endpoint: background-corrected fluorescence
Answer with a number only.

> print(dat)
                           monomer.sequence    val
1  TTTTTTGAGCAGCATGATCATTTTTTTTTTTTTTTCTTCG [GCTTC]  0.477
2  TTTTTGCAGCATCATGAGCATTTTTTTTTTTTTTTTTGCT [TCGTT]  0.482
3  TTTTTTGAGCATCATCATCATTTTTTTTTTTTTTTCTGGG [GGGTC]  0.668
4  TTTTTGCATGATCATGCTGCTTTTTTTTTTTTTTTTCGAA [AAGCT]  0.632
5  TTTTTTGATGCGCATGCTGCTTTTTTTTTTTTTTTCATAA [AATAC]  0.529

Q. Report background-corrected fluorescence, nothing else, for this sequence: TTTTTTCATGCTGCTGCTGATTTTTTTTTTTTTTTGAAAC [CAAAG]
A. 0.43

Q. Give the value of background-corrected fluorescence reported for the following: TTTTTTGCTGCTGCTGATGATTTTTTTTTTTTTTTAAACC [CCAAA]
A. 0.403
